These data points were gathered from patent US20260184782A1.

Target: T1, recombinant human TIGIT (human, UniProt Q495A1 22-141, limits assumed)
T1 construct: recombinant human TIGIT used in Carterra SPR; also called hTIGIT
T1 sequence (looked up): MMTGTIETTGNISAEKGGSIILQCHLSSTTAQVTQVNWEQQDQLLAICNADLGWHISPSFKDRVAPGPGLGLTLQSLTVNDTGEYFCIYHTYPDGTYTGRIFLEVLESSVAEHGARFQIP
Assay: SPR Carterra, average
Procedure: Binding affinities of VHH-Fc proteins to recombinant human TIGIT were measured by SPR using a Carterra instrument (Table 10A). […] Average values reported from measurements from 1-2 samples.
pKd: −log10 of the molar value.
MEASURED_PROPERTY: pKd

1. TIGIT-SC202 (Fc fusion, VHH-Fc fusion in assay) VHH: EVQLVESGGGLVQPGGSLRLSCAASGFTFSPSWMGWFRQAPGKEREWVASVLRGGYTWYADSVKGRFTISADNSKNTAYLQMNSLKPEDTAVYYCTTDGGYSGIVGFAWGQGTLVTVSS; 6.20
2. TIGIT-SC95 (Fc fusion, VHH-Fc fusion in assay) VHH: EVQLVESGGGLVQPGGSLRLSCAASGPTFSTNVMGWFRQAPGKEREFVSSIHWGGSSTVYADSVKGRFTISADNSKNTAYLQMNSLKPEDTAVYYCVTYSAYDFRNAWGQGTLVTVSS; 8.59
3. TIGIT-SC46 (Fc fusion, VHH-Fc fusion in assay) VHH: EVQLVESGGGLVQPGGSLRLSCAASGRTFSNYVMGWFRQAPGKERELVASISSFGSTYYADSVKGRFTISADNSKNTAYLQMNSLKPEDTAVYYCARSGGFLSDWGQGTLVTVSS; 8.35
4. TIGIT-SC121 (Fc fusion, VHH-Fc fusion in assay) VHH: EVQLVESGGGLVQPGGSLRLSCAASGFTFSPSWMGWFRQAPGKEREWVASVLRGGYTWYADSVKGRFTISADNSKNTAYLQMNSLKPEDTAVYYCTTEGFDPWGQGTLVTVSS; 8.33
5. TIGIT-SC86 (Fc fusion, VHH-Fc fusion in assay) VHH: EVQLVESGGGLVQPGGSLRLSCAASGIIASDSAMGWFRQAPGKEREFVAAIRWSGKETWYADSVKGRFTISADNSKNTAYLQMNSLKPEDTAVYYCARWGGVTFGGVYPLEYWGQGTLVTVSS; 8.15
6. TIGIT-SC99 (Fc fusion, VHH-Fc fusion in assay) VHH: EVQLVESGGGLVQPGGSLRLSCAASGSIFSMNTMGWFRQAPGKEREFVGAINWSGGSTIYADSVKGRFTISADNSKNTAYLQMNSLKPEDTAVYYCARWDYDILTNYYWLEYWGQGTLVTVSS; 7.28
7. TIGIT-SC122 (Fc fusion, VHH-Fc fusion in assay) VHH: EVQLVESGGGLVQPGGSLRLSCAASGFSFDDYVMGWFRQAPGKEREFVAAISMSGGYTHYADSVKGRFTISADNSKNTAYLQMNSLKPEDTAVYYCAREGYYGSGSYLVYWGQGTLVTVSS; 7.97
8. TIGIT-SC125 (Fc fusion, VHH-Fc fusion in assay) VHH: EVQLVESGGGLVQPGGSLRLSCAASGFTLSGNWMGWFRQAPGKEREMVAAIDWSGGSALYADSVKGRFTISADNSKNTAYLQMNSLKPEDTAVYYCAKDALSNSARFDHWGQGTLVTVSS; 7.21
